Where these numbers come from: ChEMBL document CHEMBL3877277

Target: Cholinesterase (Equus caballus)
Assay: Inhibition of equine serum BuChE at 10 uM using butyrylthiocholine iodide as substrate preincubated for 5 mins followed by substrate addition measured after 5 mins by Ellman's method relative to control
reported.property: inhibition (%)

[[record]]
compound = "O=C1c2ccccc2S(=O)(=O)N1CCN1CCN(CCc2ccccc2)CC1"
target_under_test = "Cholinesterase (Equus caballus)"
numeric_result = 18.4

[[record]]
compound = "O=C1c2ccccc2S(=O)(=O)N1CCCCN1CCN(Cc2ccccc2F)CC1"
target_under_test = "Cholinesterase (Equus caballus)"
numeric_result = 29.6

[[record]]
compound = "O=C1c2ccccc2S(=O)(=O)N1CCN1CCCN(Cc2cc(F)cc(F)c2)C1"
target_under_test = "Cholinesterase (Equus caballus)"
numeric_result = 16.4

[[record]]
compound = "O=C1c2ccccc2S(=O)(=O)N1CCN1CCN(Cc2ccccc2)CC1"
target_under_test = "Cholinesterase (Equus caballus)"
numeric_result = 22.1

[[record]]
compound = "O=C1c2ccccc2S(=O)(=O)N1CCN1CCN(Cc2ccccc2F)CC1"
target_under_test = "Cholinesterase (Equus caballus)"
numeric_result = 16.1

[[record]]
compound = "O=C1c2ccccc2S(=O)(=O)N1CCCCN1CCN(Cc2ccccc2)CC1"
target_under_test = "Cholinesterase (Equus caballus)"
numeric_result = 41.5

[[record]]
compound = "O=C1c2ccccc2C(=O)N1CCN1CCN(CCc2ccccc2F)CC1"
target_under_test = "Cholinesterase (Equus caballus)"
numeric_result = 20.3

[[record]]
compound = "O=C1c2ccccc2S(=O)(=O)N1CCCCCN1CCN(Cc2ccccc2)CC1"
target_under_test = "Cholinesterase (Equus caballus)"
numeric_result = 30.4

[[record]]
compound = "O=C1c2ccccc2C(=O)N1CCN1CCCN(Cc2ccccc2F)C1"
target_under_test = "Cholinesterase (Equus caballus)"
numeric_result = 27.8

[[record]]
compound = "O=C1c2ccccc2S(=O)(=O)N1CCN1CCN(CCc2ccccc2F)CC1"
target_under_test = "Cholinesterase (Equus caballus)"
numeric_result = 11.3

[[record]]
compound = "O=C1c2ccccc2C(=O)N1CCNC1CCN(Cc2ccccc2)C1 (stereo unspecified)"
target_under_test = "Cholinesterase (Equus caballus)"
numeric_result = 21.4

